Test system: HeLa cervix carcinoma cells
Experiment: MTT cell viability assay, HeLa
Assay type: cell-based, human
Settings: 72 h
Experimental: All complexes stable in solution were investigated for their anti-proliferative effect on nine human cancer cell lines, using the MTT-based cell viability assay. […] Absorbances at 570 nm and 630 nm were measured using a plate reader (Tecan). Background absorbance (630 nm) was subtracted from the formazan signal (570 nm). The resulting absorbance was directly proportional to the amount of viable cells. […] IC50 values were calculated based on a sigmoidal fit model using GraphPad Prism. […]
Please respond with reported IC50 for every item in the list.
Numbers only, in nM.

// each compound listed below needs its IC50
1. c1ccc([PH]([Au][S]c2ncnc3[nH]cnc23)(c2ccccc2)c2ccccc2)cc1
2. CSc1ncnc2c1ncn2[C@@H]1O[C@H](CO)[C@@H](O)[C@H]1O [6-MMR, 6-methylmercaptopurine riboside, reference compound]

Result block:
2600
5.6
